Target: SIRT1 (Homo sapiens)
Sequence (Q96EB6 whole entry): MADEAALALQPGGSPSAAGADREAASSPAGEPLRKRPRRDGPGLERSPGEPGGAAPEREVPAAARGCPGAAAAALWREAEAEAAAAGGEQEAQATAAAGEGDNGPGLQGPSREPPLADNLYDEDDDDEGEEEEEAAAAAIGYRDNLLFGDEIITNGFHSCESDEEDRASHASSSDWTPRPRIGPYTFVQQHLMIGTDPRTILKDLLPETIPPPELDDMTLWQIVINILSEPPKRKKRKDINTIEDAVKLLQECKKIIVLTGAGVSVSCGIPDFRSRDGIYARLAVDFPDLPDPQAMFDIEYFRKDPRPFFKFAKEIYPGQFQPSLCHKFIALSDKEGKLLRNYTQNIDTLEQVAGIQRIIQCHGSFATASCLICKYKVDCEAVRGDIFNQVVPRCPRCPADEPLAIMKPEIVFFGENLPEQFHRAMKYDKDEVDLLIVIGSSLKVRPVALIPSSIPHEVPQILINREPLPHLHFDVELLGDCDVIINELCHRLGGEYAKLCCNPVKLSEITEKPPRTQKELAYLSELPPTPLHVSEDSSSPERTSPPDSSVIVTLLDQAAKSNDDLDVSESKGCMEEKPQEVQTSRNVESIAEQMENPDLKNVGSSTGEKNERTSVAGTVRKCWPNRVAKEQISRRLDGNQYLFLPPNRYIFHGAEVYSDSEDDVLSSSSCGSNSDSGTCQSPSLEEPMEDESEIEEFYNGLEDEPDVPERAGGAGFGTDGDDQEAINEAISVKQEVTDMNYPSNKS
Assay: Mass spectrometry based assay to identify modulators of SIRT1 activity (deacetylation of p53-based acetylated peptide substrate)
Type: biochemical
Please provide measured EC1.5 (concentration giving 1.5-fold activation) for the entries that follow.

## Task Please provide the recorded EC1.5 (concentration giving 1.5-fold activation) for `O=C(Nc1cncc(F)c1)N1CCCOc2ccc(-c3cccc(Cl)c3)nc21` , tested on SIRT1 (Homo sapiens).
## Result 1 to 25 µM

## Task Then this compound: `O=C(Nc1ccncc1)N1CCOc2c(N3CCCC3)nc(-c3cccc(F)c3)nc21`
## Result > 25 µM

## Task Then this compound: `O=C(Nc1cccc(OC[C@@H](O)CO)n1)N1CCC(F)(F)c2ccc(-c3cccc(C(F)(F)F)c3)nc21`
## Result < 1 µM

## Task Then this compound: `Cc1csc(NC(=O)N2CCOc3cnc(-c4cccc(C(F)(F)F)c4)nc32)n1`
## Result > 25 µM
